B1: LINE1-mini (parent)
chain: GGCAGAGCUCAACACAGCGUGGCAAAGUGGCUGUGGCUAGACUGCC

# Variants of: B1
# assaySummary: self-cleavage, relative activity (ratio to wild type); higher = more cleavage; in vitro, sequencing; the parent is a self-cleaving ribozyme
# if value of self-cleavage reaches 0.1, tag t; if it stays below, tag f

> print(dat)
                                   seqstring  class
 1  GGCAGAGCUCAACACAGCGUGGCAAAGUGGCUAUGGCUAGACUGGC [G33A C45G]      f
 2  GGCAGAACUCAACACAGCGUGGCAAAGUGGCUGUGUCUAGACUGCC [G7A G36U]      t
 3  GGCAGAGCUCAUCACAGAGUGGCAAAGUGGCUGUGGCUAGACUGCC [A12U C18A]      t
 4  GGCAGAGCUCAACACAGCGUGUCAAAGUGGCUGGGGCUAGACUGCC [G22U U34G]      t
 5  GGAAGAGCUCAACACAGCGUGGCAAAGUGGCUGUGGCUAGACGGCC [C3A U43G]      f
 6  GGCAGAGCUCUACACAGCGUGGCAAUGUGGCUGUGGCUAGACUGCC [A11U A26U]      t
 7  GGCAGAGCUCACCACAGCGUGGCAAAGUGGCUUUGGCUAGACUGCC [A12C G33U]      f
 8  GGCAGUGCUCAACACAGCGUGGCAGAGUGGCUGUGGCUAGACUGCC [A6U A25G]      t
 9  GGCAGAGCUCAACACAGCGUGGCAAAGAGGAUGUGGCUAGACUGCC [U28A C31A]      t
10  GGCAGAGCCCAAGACAGCGUGGCAAAGUGGCUGUGGCUAGACUGCC [U9C C13G]      f
11  GGCAGAGCUCAACACAGCGUGGAAAAGUGGCUGUGGCUGGACUGCC [C23A A39G]      f
12  GGCAGAGCUCAUCACAGCGUGGCAAAGUGGAUGUGGCUAGACUGCC [A12U C31A]      f
13  GGCAGAGCGCAACACAGCGUGGCAAAGUGGCUGUGGCUAGUCUGCC [U9G A41U]      t
14  GGCAAAGCUAAACACAGCGUGGCAAAGUGGCUGUGGCUAGACUGCC [G5A C10A]      f
15  GGCAGAGCUAAACACAGCGUGGCAAAGUGGCGGUGGCUAGACUGCC [C10A U32G]      f
16  GGCAGAGCUCAACACAGCGUUGCAAAGUGGCUCUGGCUAGACUGCC [G21U G33C]      f
17  GGCAGAGCUCAACGCAGCGUGGCUAAGUGGCUGUGGCUAGACUGCC [A14G A24U]      t
18  GGCAGAGCUCAACACCGCAUGGCAAAGUGGCUGUGGCUAGACUGCC [A16C G19A]      t
19  GGCAGAGCUCAACAGAGCGUGGCAAAGUGACUGUGGCUAGACUGCC [C15G G30A]      f
20  UGCAGAGCUCAACACAGCGAGGCAAAGUGGCUGUGGCUAGACUGCC [G1U U20A]      t
21  GGCAGAGCGCAACUCAGCGUGGCAAAGUGGCUGUGGCUAGACUGCC [U9G A14U]      f
22  GGCAGAGCUCAAAACGGCGUGGCAAAGUGGCUGUGGCUAGACUGCC [C13A A16G]      f
23  GGCAGAGCUCAACACAGCGUGGCAAAGCGGCUGUGGCUAGCCUGCC [U28C A41C]      f
24  GGCAGAGCCCAACACAGCGUGGCAAAGUGGCUGUGGCCAGACUGCC [U9C U38C]      f
25  GGCAGAGCUCGUCACAGCGUGGCAAAGUGGCUGUGGCUAGACUGCC [A11G A12U]      f
26  GGCAGAGCUCAACACAGCGUGGCAGAGUGGCUGUUGCUAGACUGCC [A25G G35U]      f
27  GGCAGAGCCCAACACAGCGUGGCAAAGUGGCUGUGGCUAGCCUGCC [U9C A41C]      f
28  GGCUGAGCUCAACACAGCGUGGCAAAGUGGCUGUGGCUAGACUACC [A4U G44A]      t
29  GGCAGAGGUCAACACAGCGCGGCAAAGUGGCUGUGGCUAGACUGCC [C8G U20C]      f
30  GGCAGAGCGCAGCACAGCGUGGCAAAGUGGCUGUGGCUAGACUGCC [U9G A12G]      f
31  GGCAGAGCUCAACACAGCGUGGCAAAGUGGCUCUGGCUAUACUGCC [G33C G40U]      f
32  GGCAGAGCUCAACACAGCGGGGUAAAGUGGCUGUGGCUAGACUGCC [U20G C23U]      t
33  GGCAGAGCUCAACACAGCGUGGCAAAGUCGUUGUGGCUAGACUGCC [G29C C31U]      t
34  GGCAGAGCUCAACACAGCGUGGCGAAGAGGCUGUGGCUAGACUGCC [A24G U28A]      t
35  GGCAGAGCUCAACACAACGUGGCAAAGUGGCUGCGGCUAGACUGCC [G17A U34C]      f
36  GGCAGAGCUCACCACAGCGCGGCAAAGUGGCUGUGGCUAGACUGCC [A12C U20C]      f
37  GGCAGAGCUCAACACAGCGUGUCAAAGUGGCUGUGGGUAGACUGCC [G22U C37G]      f
38  GGCAGAGCUCAACUCAGCGUGGCAUAGUGGCUGUGGCUAGACUGCC [A14U A25U]      t
39  GGCAGAGCUUAACACAGCGUGGCUAAGUGGCUGUGGCUAGACUGCC [C10U A24U]      t
40  GGCAGAGCUCAACACUGCGUGGCAAAGUGGCUGUGGCUAGACAGCC [A16U U43A]      f
41  GGCAGAGCUCAACAAAGCGUGGCAAAGUGGCUGUGGCUAGAGUGCC [C15A C42G]      f
42  GGCAGAGCUCAACACAGCGUGGCAAAGUGGCUGUGGCAAGCCUGCC [U38A A41C]      f
43  GGCAGAGCUCAACACAGCCUGGCAAAGUGCCUGUGGCUAGACUGCC [G19C G30C]      t
44  GGCAGAGCCCAACACAUCGUGGCAAAGUGGCUGUGGCUAGACUGCC [U9C G17U]      f
45  GGCAGAGCUCAACACAGCGUGGCAAAGUGGCCGUGGCUAGACUUCC [U32C G44U]      f
46  GGCAGAGCUCAACACACCGUGGCAAAGAGGCUGUGGCUAGACUGCC [G17C U28A]      t
47  GGCAGAGCUCAAAACAGCGUGGAAAAGUGGCUGUGGCUAGACUGCC [C13A C23A]      t
48  GGCAGACCUCAACACAGCGUGGCAAAGUGGCUGUGGCUAGACUACC [G7C G44A]      f
49  GGCAUAGCUCAACACAGCGUGGCAAAGUGGCUGUGGCUAGAAUGCC [G5U C42A]      t
50  GGCAGAGCUCAACACAGCGUGGCAAAGUGGUUGUGGCUAGAUUGCC [C31U C42U]      f
51  GUCAGAGCUCAACACAGGGUGGCAAAGUGGCUGUGGCUAGACUGCC [G2U C18G]      f
52  GGCACAGCUCAACACAGCGUGGCAAAGUGGCUGUGACUAGACUGCC [G5C G36A]      f
53  GGCAGAGCUCAACACAGCGUGGCAAAGUGGCGGUGGCUAGGCUGCC [U32G A41G]      f
54  GGCAGAGCUCAACACAGCGUUGCAAAGUGGCUGUGACUAGACUGCC [G21U G36A]      t
55  GGCAGAUCUCAACACAGCGUGGCAAAAUGGCUGUGGCUAGACUGCC [G7U G27A]      f
56  GGCAGAGCUCAACACAGCGUGCCAAAGUGGCUGUGGCUAUACUGCC [G22C G40U]      t
57  GGCUGAGCUCAACACAGCGUGGUAAAGUGGCUGUGGCUAGACUGCC [A4U C23U]      t
58  GGCAGAGCUCAACACGGCGUGGCAAAGUGGCUGUGGCUAGACUGGC [A16G C45G]      t
59  GGCAGAGCUCAACACAGCGUGGCAAAGUGGCUUUAGCUAGACUGCC [G33U G35A]      f
60  GGCAGAGCUCAACACAGCGUGGCAAAGUGGUUGUGGCUAGACGGCC [C31U U43G]      f
61  GGCAGAGCUCAACACAACGUGGCAAAGUGGCUGUCGCUAGACUGCC [G17A G35C]      f
62  GGCAGAGCUCAACAGAGCGUGGCAAAGUGGUUGUGGCUAGACUGCC [C15G C31U]      f
63  GGCAGAGCUCAACACAGCGUGGCGAAUUGGCUGUGGCUAGACUGCC [A24G G27U]      t
64  GGCAGAGCUCAACACAGCGUGGGAAAAUGGCUGUGGCUAGACUGCC [C23G G27A]      t
65  UGCAGAGCUCAACACAGCGUGGCAAAGUGGCUGUGGCUAGACUCCC [G1U G44C]      t
66  GGCAGAGCUCAACACAGCGAGGCAAAGUGGCUGCGGCUAGACUGCC [U20A U34C]      t
67  GGCAGAGCUCAACACAGCGUGGCAAAGUGGCUGUGGCUAGAGUUCC [C42G G44U]      f
68  GGCAGAGCUCAAUACAGCGUGGCAAAGUUGCUGUGGCUAGACUGCC [C13U G29U]      t
69  GGUAGAGCUCAACACAGCGUGGCCAAGUGGCUGUGGCUAGACUGCC [C3U A24C]      t
70  GGCAGAGCUCAACACAGCGUGGCAAAGUGGCCGUGGCUAGAAUGCC [U32C C42A]      t
71  GACAGAGCUCACCACAGCGUGGCAAAGUGGCUGUGGCUAGACUGCC [G2A A12C]      f
72  GCCAGAGCUCAACACAGCGUGGCAAAGUGUCUGUGGCUAGACUGCC [G2C G30U]      t
73  GGCAGAGCUCAAGACAGCGUGGCAAAGUGGCUGUGGCGAGACUGCC [C13G U38G]      f
74  GGCAGAGCUCAACACAGCGUGGGAAAGUGGCUGUGGCUAGACUGAC [C23G C45A]      t
75  GGCAGAGCUCAACACGGCGUGGCAAAGUGGCUGUGGCUAGAGUGCC [A16G C42G]      f
76  GGCUGAGCUCAACACAGCGUGGCAAAGUGGCUGUGGCUAUACUGCC [A4U G40U]      t
77  GGCAGAACUCAACACAGCGUGGCACAGUGGCUGUGGCUAGACUGCC [G7A A25C]      t
78  GGCAGAGCUCAACACAGCGUGGCAACGUGGCUGUGACUAGACUGCC [A26C G36A]      t
79  GGCAGUGCUCAACACAGCGUGGCAAAGUGGCUGUAGCUAGACUGCC [A6U G35A]      t
80  GGCAGAGCUCAACACAGCGUGGCAAAGUGGCUGUGGCUAGACUGGG [C45G C46G]      t
81  GGCAGAGCUAAACACAGCGUGGCAAAGUGGAUGUGGCUAGACUGCC [C10A C31A]      f
82  GGCAGAGCUCAACACUGCGAGGCAAAGUGGCUGUGGCUAGACUGCC [A16U U20A]      f
83  GGCAGAGCUCAAGACAGCGUGGCAAAGUGGCUGUGGCUAGAAUGCC [C13G C42A]      f
84  GGCAGAGCUCAACACAGCGUGGCUAAGUGGCUGUGGCUAGAUUGCC [A24U C42U]      t
85  GGCAGAGCUCAACACACUGUGGCAAAGUGGCUGUGGCUAGACUGCC [G17C C18U]      f
86  GGCAGAGCUCAACGCAGCGUGGUAAAGUGGCUGUGGCUAGACUGCC [A14G C23U]      t
